Measured growth, listed per entry.
# Test system: T-47D breast
# measurement_protocol: NCI-60 one-dose screen, 48 h (100 = growth as untreated, 0 = no growth, -100 = all killed)
# experimental_parameters: 10 µM unless noted
Compounds without any hit were thinned out: in the full panel of roughly 83,000, 20% have a hit. Calls of active or inactive are those of the source. Rule for the calls: active = growth percent below 10; inactive = the rest.

molecule: COc1ccc(Cn2cc(COc3cc(/C=C/C(=O)c4cc(OC)c(OC)c(OC)c4)ccc3OC)nn2)cc1
target_entity: T-47D breast
growth: 65.4% (inactive)
--
molecule: C=C1C(=O)O[C@H]2[C@H]1CC/C(COC(=O)NCc1ccc(OC)cc1)=C\CC[C@@]1(C)O[C@@H]21
target_entity: T-47D breast
growth: 17.5% (inactive)
--
molecule: CC/C=C\C/C=C\C[C@H]1C/C=C2/C(=O)C=C[C@H]2C/C=C\CCC(=O)O1
target_entity: T-47D breast
growth: 12.9% (inactive)
--
molecule: CNC(=O)c1cc(Oc2ccc3c(c2)sc2nc(-c4ccc(Cl)cc4)cn23)ccn1
target_entity: T-47D breast
growth: 79% (inactive)
--
molecule: CCOC(=O)[C@H](CSSc1ncnc2cc[nH]c12)NC(=O)[C@@H](C)c1ccc2cc(OC)ccc2c1
target_entity: T-47D breast
growth: 23.3% (inactive)
--
molecule: Cn1c(-c2nonc2NC(=O)c2ccc(F)cc2)nc2ccccc21
target_entity: T-47D breast
growth: 96.5% (inactive)
--
molecule: COc1ccc(-c2nnc(COc3ccc(NS(=O)(=O)c4ccc(OC)cc4)cc3F)o2)cc1
target_entity: T-47D breast
growth: 31.6% (inactive)
--
molecule: CC(C)CCC[C@@H](C)[C@H]1CC[C@H]2[C@@H]3CC[C@H]4C/C(=N/O)CC[C@]4(C)[C@H]3CC[C@]12C
target_entity: T-47D breast
growth: 103% (inactive)
--
molecule: COc1ccccc1CNCCCN1C(=O)c2ccc3c4c(ccc(c24)C1=O)C(=O)N(CCCNCCCCNCCCCN)C3=O
target_entity: T-47D breast
growth: -1.05% (active)
--
molecule: O=S(=O)(NCCNc1cc(-c2cn(-c3ccccc3)nc2-c2ccccc2)ccn1)c1cccc2ccccc12
target_entity: T-47D breast
growth: 24.3% (inactive)
--
molecule: COc1ccc(-c2cn[nH]c2-c2cc(OC)c3c(c2)OCCO3)cc1
target_entity: T-47D breast
growth: 49.5% (inactive)
--
molecule: CCO/C=N/NC(=O)c1ccncc1
target_entity: T-47D breast
growth: 106% (inactive)
--
molecule: CN1CCN(c2ccc3cc(-c4nc5ccccc5[nH]4)c(=O)oc3c2)CC1
target_entity: T-47D breast
growth: 76.9% (inactive)
--
molecule: COc1cc(/C=C/C(=O)c2ccc(NC(=O)CN3CCN(c4cc5c(cc4F)c(=O)c(C(=O)O)cn5C4CC4)CC3)cc2)cc(OC)c1OC
target_entity: T-47D breast
growth: 17.5% (inactive)
--
molecule: Cc1ccc(S(=O)(=O)OCC(=O)Nc2ccc(C(=O)O)c(O)c2)cc1
target_entity: T-47D breast
growth: 106% (inactive)
--
molecule: NC(=O)c1c(NC(=O)c2ccc(OCC3CCCO3)cc2)sc2c1CCCC2 (stereo not drawn)
target_entity: T-47D breast
growth: 80.5% (inactive)
--
molecule: COc1ccc(S(=O)(=O)N2CCN(c3cc4c(cc3F)c(=O)c(C(=O)O)cn4C3CC3)CC2)c(OC)c1
target_entity: T-47D breast
growth: 75% (inactive)
--
molecule: O=C1N=C(c2c(-c3[nH]c(=O)c4ccc(Br)cc4c3O)c(O)c3ccccc3c2O)C(=O)c2cc(Br)ccc21
target_entity: T-47D breast
growth: -34.2% (active)
--
molecule: C[C@]12CC[C@@H]3c4cc(O)c(O)cc4CC[C@H]3[C@@H]1CC[C@@H]2O
target_entity: T-47D breast
growth: 30.4% (inactive)
--
molecule: O=S(=O)(NCCCNc1nccc(-c2c(-c3ccccc3)nc3sccn23)n1)c1ccc(F)cc1
target_entity: T-47D breast
growth: 7.39% (active)
--
molecule: O=C(CCCn1c(=O)c2sc3ccccc3c2n2nnc(-c3ccccc3)c12)NCCc1cnc[nH]1
target_entity: T-47D breast
growth: 4.62% (active)
--
molecule: Cc1nc2scc(-c3ccccc3)n2c(=O)c1CCO
target_entity: T-47D breast
growth: 99.6% (inactive)
--
molecule: CN=S(=O)(NC(=O)c1ccc(Cl)cc1Cl)c1ccc(Br)s1 (stereo not drawn)
target_entity: T-47D breast
growth: 95.8% (inactive)
